Target: T1, cynomolgus TREM2 (cynomolgus, UniProt A0A2K5UY34 49-260)
T1 construct: also called cynoTREM2; cTREM2
T1 sequence: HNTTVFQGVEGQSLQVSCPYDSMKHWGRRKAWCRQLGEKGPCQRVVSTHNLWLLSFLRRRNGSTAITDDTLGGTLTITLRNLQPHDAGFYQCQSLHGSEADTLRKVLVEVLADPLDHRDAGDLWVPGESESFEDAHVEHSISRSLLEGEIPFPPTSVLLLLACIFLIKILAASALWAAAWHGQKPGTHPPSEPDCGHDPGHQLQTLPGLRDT
Assay: MFI on CHO cells over-expressing cynoTREM2-DAP12 vs CHO empty vector
Binary call on MFI Fold change (CHO-cTREM2 over CHO-EV) with cut-off 300 fold: strictly below means class 1, and equality or higher means class 0.

binder="EOS006172 (antibody, V domains shown) VH: QVQLVQSGAEVKKPGSSVKVSCKASGGTFSSYAISWVRQAPGQGLEWMGGIIPISGTANYAQKFQGRVTITADESTSTAYMELSSLRSEDTAVYYCARTQEYTLFDIWGQGTMVTVSS VL: EIVLTQSPATLSLSPGERATLSCRASQSVSSYLAWFQQKPGQAPRLLIYDASNRATGIPARFSGSGSGTDFTLTISSLEPEDFAVYYCQQDFHWPITFGGGTKVEIK" class_name="class 0"
binder="EOS006174 (antibody, V domains shown) VH: EVQLVESGGGLVQPGRSLRLSCTASGFTFGEYTMSWFRQAPGKGLEWVGFIGSKAYAGTTEYTASVKGRFTISRDGSKSIAYLQMNSLKTEDTAVYYCARGKRYSYGGWVPAFDVWGQGTMVTVSS VL: DIQMTQSPSSLSASVGDRVTITCQASQDITNYLNWYQQKPGKAPKLLIYDASNLETGVPSRFSGSGSGTDFTFTISSLQPEDIATYYCQEYDSYLAFGGGTKVEIK" class_name="class 0"
binder="EOS006165 (antibody, V domains shown) VH: QVQLVQSGAEVKKPGSSVKVSCKASGGTFSSYAISWVRQAPGQGLEWMGGIIPISGTANYAQKFQGRVTITADESTSTAYMELSSLRSEDTAVYYCARTQEYTAFDIWGQGTMVTVSS VL: EIVLTQSPATLSLSPGERATLSCRASQSVSSYLAWFQQKPGQAPRLLIYDASNRATGIPARFSGSGSGTDFTLTISSLEPEDFAVYYCQQDYHWPITFGGGTKVEIK" class_name="class 1"
binder="EOS006164 (antibody, V domains shown) VH: EVQLVESGGGLVQPGRSLRLSCTASGFTFDDYTMSWFRQAPGKGLEWVGFIGSKAYSATTEYTASVKGRFTISRDGSKSIAYLQMNSLKTEDTAVYYCARGKRYSYTYWTPAFDVWGQGTMVTVSS VL: DIQMTQSPSSLSASVGDRVTITCQASQDITNYLNWYQQKPGKAPKLLIYDASNLETGVPSRFSGSGSGTDFTFTISSLQPEDIATYYCQEYDSYITFGGGTKVEIK" class_name="class 1"
binder="EOS006171 (antibody, V domains shown) VH: QVQLVESGGGLVKPGGSLRLSCAASGFTFSDYYMSWIRQAPGKGLEWVSYISSSGSTIYYADSVKGRFTISRDNAKNSLYLQMNSLRAEDTAVYYCARLGGYYSLGPMDVWGQGTTVTVSS VL: EIVLTQSPATLSLSPGERATLSCRASQSVSSYLAWYQQKPGQAPRLLIYDASNRATGIPARFSGSGSGTDFTLTISSLEPEDFAVYYCQQDSAFPFTFGGGTKVEIK" class_name="class 0"
binder="EOS006177 (antibody, V domains shown) VH: QVQLQESGPGLVKPSGTLSLTCAVSGGSISDSAWWSWVRQPPGKGLEWIGEIYHDADTNYNPSLKSRVTISVDKSKNQFSLKLSSVTAADTAVYYCARDTKYWGGMDVWGQGTTVTVSS VL: DIQMTQSPSSLSASVGDRVTITCQASQDISNYLNWYQQKPGKAPKLLIYDASNLATGVPSRFSGSGSGTDFTFTISSLQPEDIATYYCQQYVEAPTFGGGTKVEIK" class_name="class 0"
binder="EOS006166 (antibody, V domains shown) VH: EVQLVESGGGLVQPGRSLRLSCTASGFTFGDYAMSWFRQAPGKGLEWVGFIGSKAYGGTTEYTASVKGRFTISRDGSKSIAYLQMNSLKTEDTAVYYCARGKRYSYGYWHPAFDVWGQGTMVTVSS VL: DIQMTQSPSSLSASVGDRVTITCQASQDITNYLNWYQQKPGKAPKLLIYDASNLETGVPSRFSGSGSGTDFTFTISSLQPEDIATYYCQQYDSYLTFGGGTKVEIK" class_name="class 0"
binder="EOS006175 (antibody, V domains shown) VH: QVQLQESGPGLVKPSGTLSLTCAVSGGSISSSNWWSWVRQPPGKGLEWIGEIYHSGSTNYNPSLKSRVTISVDKSKNQFSLKLSSVTAADTAVYYCARDTKYWGGMDVWGQGTTVTVSS VL: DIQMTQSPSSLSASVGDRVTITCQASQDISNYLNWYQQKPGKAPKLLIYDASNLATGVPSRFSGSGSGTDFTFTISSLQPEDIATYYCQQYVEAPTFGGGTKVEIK" class_name="class 1"
binder="Ab52 (antibody, V domains shown, benchmark anti-TREM2 antibody from WO2016023019A2) VH: QVQLVQSGAEVKKPGASVKVSCKASGYTFTSYYIHWVRQAPGQGLEWMGIINPSGGSTSYAQKFQGRVTMTRDTSTSTVYMELSSLRSEDTAVYYCAREADDSSGYPLGLDVWGQGTMVTVSS VL: EIVMTQSPATLSVSPGERATLSCRASQSVSSNLAWYQQKPGQAPRLLIYGASTRATGIPARFSGSGSGTEFTLTISSLQSEDFAVYYCQQVNSLPPTFGGGTKVEIK" class_name="class 0"
binder="EOS006181 (antibody, V domains shown) VH: EVQLVESGGGLVQPGRSLRLSCTASGFTFDDHAMSWFRQAPGKGLEWVGFIGSKAYGGTTEYTASVKGRFTISRDGSKSIAYLQMNSLKTEDTAVYYCARGKRYSYTYWTPAFDVWGQGTMVTVSS VL: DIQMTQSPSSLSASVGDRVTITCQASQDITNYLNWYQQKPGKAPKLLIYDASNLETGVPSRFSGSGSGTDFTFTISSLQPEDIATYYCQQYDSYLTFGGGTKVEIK" class_name="class 1"
